Here the recorded protein stability index is given for each entry.
B1: KRT33B (parent)
chain: PAVDLNQVLNETRNQYEALVETNR

variants of: B1; assay: protein stability index of a GFP-peptide fusion (GPS, HEK-293T) (PSI 1-6); higher = more stable; conditions: c terminus: a fixed tail appended;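 also: lentivirally expressed fusions sorted by FACS into six bins by GFP to DsRed ratio, PSI derived from sequencing read proportions per bin multiplied by bin number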
Give a plain numeric answer without units written out.

INSERT INTO measurements (mutationcode, quantitativeresult) VALUES
  ('N23C', 4.03),
  ('A18H', 4.09),
  ('R24K', 3.97),
  ('E17H', 3.9);

Then this variant:
Q: Fill in the blank: the reported protein stability index of R13W is ____.
Result: 3.92

Values from the supplement of paper PMC10567573
